Molecular target: Serine/threonine-protein kinase mTOR (Homo sapiens, UniProt P42345)
Experiment: Inhibition of mTOR (unknown origin) at 0.5 uM relative to control

SMILES_CODE: O=C(NO)c1ccc(-c2nc(N3CCCCC3)c3ccccc3n2)cc1
inhibition, %: 23.6
--
SMILES_CODE: O=C(NO)c1ccc(-c2nc(N3CCOCC3)c3ccccc3n2)cc1
inhibition, %: 60.1
--
SMILES_CODE: O=C(NO)c1ccc(-c2nc(N3CCS(=O)(=O)CC3)c3ccc(Cl)cc3n2)cc1
inhibition, %: 39.7
--
SMILES_CODE: COc1cc(OC)c2c(N3CCC(F)(F)CC3)nc(-c3ccc(C(=O)NO)cc3)nc2c1
inhibition, %: 10.6
--
SMILES_CODE: COc1cc(OC)c2c(N3CCS(=O)(=O)CC3)nc(-c3ccc(C(=O)NO)cc3)nc2c1
inhibition, %: 34.8
--
SMILES_CODE: CN1CCN(c2nc(-c3ccc(C(=O)NO)cc3)nc3cc(Cl)ccc23)CC1
inhibition, %: 91.4
--
SMILES_CODE: COc1cc(OC)c2c(N3CCOC[C@H]3C)nc(-c3ccc(C(=O)NO)cc3)nc2c1
inhibition, %: 57.2

###

Test system: MDA-MB-231
Assay: Antiproliferative activity against human MDA-MB-231 cells measured after 48 hrs
Format: functional, cell-based
Settings: MDA-MB-231, 48 h

SMILES_CODE: CN1CCN(c2nc(-c3ccc(C(=O)NO)cc3)nc3cc(Cl)ccc23)CC1
READOUT_UNIT: µM
IC50: 8.4
